target: Human immunodeficiency virus type 1 protease (Human immunodeficiency virus 1, UniProt Q72874, L33I/L63I/Q7K); experiment: Compound was tested for inhibition of HIV protease triple mutant (Q7K/L33I/L63I)
propertyName: Ki (nM)
Entry rule: numbers only, all in nM.

Would you kindly share the measured Ki for CCCC1(CCc2ccccc2)CC(=O)C(C(CC)c2cccc(NS(=O)(=O)c3cn(C)cn3)c2)=C(O)O1 (configuration not stated) ?
1

====

molecular target: Human immunodeficiency virus type 1 protease (Human immunodeficiency virus 1, UniProt Q72874, L33I/L63I/Q7K); assay: Compound was tested for inhibition of HIV protease triple mutant (Q7K/L33I/L63I)
propertyName: pIC50
Please keep in mind that pIC50 is minus log10 of the molar concentration; only the number is needed.

Would you kindly share the measured pIC50 for CCCC1(CCc2ccccc2)CC(=O)C(C(CC)c2cccc(NS(=O)(=O)c3cn(C)cn3)c2)=C(O)O1 (stereo unspecified) ?
6.30

====

Listing of entries alongside the reported Ki.
molecular target: Human immunodeficiency virus type 1 protease (Human immunodeficiency virus 1, UniProt Q72874)

* CCC[C@@]1(CCc2ccccc2)CC(=O)C([C@@H](CC)c2cccc(NS(=O)(=O)c3ccc(C(F)(F)F)cn3)c2)=C(O)O1 (stereo in doubt; form 2) | 0.032 nM
* CCCC1(CCc2ccccc2)CC(=O)C(C(CC)c2cccc(NS(=O)(=O)c3ccc(C#N)cc3)c2)=C(O)O1 (stereo unspecified) | 8 nM
* CCC[C@]1(CCc2ccccc2)CC(=O)C([C@@H](CC)c2cccc(NS(=O)(=O)c3cn(C)cn3)c2)=C(O)O1 (stereo in doubt; Vb) | 0.06 nM
* CCC[C@]1(CCc2ccccc2)CC(=O)C([C@@H](CC)c2cccc(NS(=O)(=O)c3cn(C)cn3)c2)=C(O)O1 (stereo in doubt; Va) | 0.12 nM
* CCC[C@]1(CCc2ccccc2)CC(=O)C([C@H](CC)c2cccc(NS(=O)(=O)c3ccc(C#N)cn3)c2)=C(O)O1 | 0.1 nM
* CCCC1(CCc2ccccc2)CC(=O)C(C(CC)c2cccc(NS(=O)(=O)c3ccccc3)c2)=C(O)O1 (stereo unspecified) | 17 nM
* CCC[C@]1(CCc2ccccc2)CC(=O)C([C@@H](CC)c2cccc(NS(=O)(=O)c3cn(C)cn3)c2)=C(O)O1 (stereo in doubt; Vc) | 1 nM
* CCC[C@@]1(CCc2ccccc2)CC(=O)C([C@@H](CC)c2cccc(NS(=O)(=O)c3ccc(C#N)cn3)c2)=C(O)O1 | 0.04 nM

Would you kindly share the measured Ki for CCCC1(CCc2ccccc2)C=c2oc(=O)c(C(CC)c3ccccc3)c(O)c2=CC1 (stereo unspecified) ?
35 nM

Would you kindly share the measured Ki for CCC[C@]1(CCc2ccccc2)CC(=O)C([C@H](CC)c2cccc(NS(=O)(=O)c3ccc(C(F)(F)F)cn3)c2)=C(O)O1 ?
0.018 nM

Would you kindly share the measured Ki for CCC[C@]1(CCc2ccccc2)CC(=O)C([C@@H](CC)c2cccc(NS(=O)(=O)c3cn(C)cn3)c2)=C(O)O1 (stereo in doubt; Vd) ?
0.03 nM

Would you kindly share the measured Ki for CCCC1(CCc2ccccc2)CC(=O)C(C(CC)c2cccc(NS(=O)(=O)c3ccc(F)cc3)c2)=C(O)O1 (stereo unspecified) ?
6 nM

Would you kindly share the measured Ki for CCC[C@]1(CCc2ccccc2)CC(=O)C([C@@H](CC)c2cccc(NS(=O)(=O)c3ccc(C#N)cn3)c2)=C(O)O1 ?
0.12 nM

Would you kindly share the measured Ki for CCC[C@@]1(CCc2ccccc2)CC(=O)C([C@@H](CC)c2cccc(NS(=O)(=O)c3ccc(C(F)(F)F)cn3)c2)=C(O)O1 (stereo in doubt; form 1) ?
0.22 nM

Would you kindly share the measured Ki for CCCC1(CCc2ccccc2)CC(=O)C(C(CC)c2cccc(NS(=O)(=O)c3cccc4cccnc34)c2)=C(O)O1 (stereo unspecified) ?
3 nM

Would you kindly share the measured Ki for CCC[C@@]1(CCc2ccccc2)CC(O)=C([C@H](CC)c2cccc(NS(=O)(=O)c3ccc(C#N)cn3)c2)C(=O)O1 ?
0.007 nM

====

biological target: Cathepsin E (Homo sapiens)
Sequence (P14091 whole entry): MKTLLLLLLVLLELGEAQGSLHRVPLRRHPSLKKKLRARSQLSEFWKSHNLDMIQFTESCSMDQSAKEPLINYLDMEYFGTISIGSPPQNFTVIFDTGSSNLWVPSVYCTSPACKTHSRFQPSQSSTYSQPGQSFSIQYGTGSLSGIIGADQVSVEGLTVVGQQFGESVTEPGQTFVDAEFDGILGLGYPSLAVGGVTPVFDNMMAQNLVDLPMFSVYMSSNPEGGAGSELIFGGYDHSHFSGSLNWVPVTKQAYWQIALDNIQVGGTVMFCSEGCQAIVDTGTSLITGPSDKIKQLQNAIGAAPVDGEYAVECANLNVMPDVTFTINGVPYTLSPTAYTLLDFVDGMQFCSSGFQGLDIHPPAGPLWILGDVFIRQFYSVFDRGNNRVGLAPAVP
propertyName: Ki (µM)
Entry rule: numbers only, all in µM.

Would you kindly share the measured Ki for CCC[C@@]1(CCc2ccccc2)CC(O)=C([C@H](CC)c2cccc(NS(=O)(=O)c3ccc(C(F)(F)F)cn3)c2)C(=O)O1 ?
9

====

biological target: Human immunodeficiency virus type 1 protease (Human immunodeficiency virus 1); assay: Tested for inhibition of HIV protease
propertyName: IC90 (nM)
Entry rule: numbers only, all in nM.

* CCC[C@@]1(CCc2ccccc2)CC(=O)C([C@@H](CC)c2cccc(NS(=O)(=O)c3ccc(C(F)(F)F)cn3)c2)=C(O)O1 (stereo in doubt; form 1) | 3000
* CCC[C@@]1(CCc2ccccc2)CC(=O)C([C@@H](CC)c2cccc(NS(=O)(=O)c3ccc(C(F)(F)F)cn3)c2)=C(O)O1 (stereo in doubt; form 2) | 1800
* CCCC1(CCc2ccccc2)CC(=O)C(C(CC)c2cccc(NS(=O)(=O)c3ccc(C#N)cc3)c2)=C(O)O1 (stereo unspecified) | 4200

Kindly consider the entry below.
// lookup IC90 | system=Human immunodeficiency virus type 1 protease (Human immunodeficiency virus 1) | key= CCC[C@]1(CCc2ccccc2)CC(=O)C([C@H](CC)c2cccc(NS(=O)(=O)c3ccc(C(F)(F)F)cn3)c2)=C(O)O1
840

====

target: Human immunodeficiency virus type 1 protease (Human immunodeficiency virus 1) (UniProt Q72874); test: Tested for inhibition of HIV protease
Listing of entries alongside the reported log10 of IC90.
In our notation, the value equals log10 of IC90 in nM.

Some molecules with recorded log10 of IC90:
- CCCC1(CCc2ccccc2)CC(=O)C(C(CC)c2cccc(NS(=O)(=O)c3ccc(F)cc3)c2)=C(O)O1 (centres undefined): 3.63
- CCC[C@@]1(CCc2ccccc2)CC(O)=C([C@H](CC)c2cccc(NS(=O)(=O)c3ccc(C#N)cn3)c2)C(=O)O1: 2.41
- CCC[C@@]1(CCc2ccccc2)CC(=O)C([C@@H](CC)c2cccc(NS(=O)(=O)c3ccc(C#N)cn3)c2)=C(O)O1: 2.95

Would you kindly share the measured log10 of IC90 for CCCC1(CCc2ccccc2)CC(=O)C(C(CC)c2cccc(NS(=O)(=O)c3ccccc3)c2)=C(O)O1 (centres undefined) ?
3.86

Would you kindly share the measured log10 of IC90 for CCC[C@]1(CCc2ccccc2)CC(=O)C([C@H](CC)c2cccc(NS(=O)(=O)c3ccc(C#N)cn3)c2)=C(O)O1 ?
3.00

====

experiment: Oral bioavailability of compound reported after 5 mg/kg i.v. dose in rat; format: ADME, organism-based; conditions: in vivo, 10 mg/kg, in the assay text read “after 10 mg/kg oral dose” for “after 5 mg/kg i.v. dose”
propertyName: bioavailability (%)
Entry rule: numbers only, all in %.

Would you kindly share the measured bioavailability for CCC[C@@]1(CCc2ccccc2)CC(O)=C([C@H](CC)c2cccc(NS(=O)(=O)c3ccc(C(F)(F)F)cn3)c2)C(=O)O1 ?
30

====

assay: in vivo; conditions: rat, plasma, iv, 5 mg/kg
Description: Plasma half life reported after 5 mg/kg i.v. dose in rat
propertyName: half-life
Please give the number followed by its unit.

Would you kindly share the measured half-life for CCC[C@@]1(CCc2ccccc2)CC(O)=C([C@H](CC)c2cccc(NS(=O)(=O)c3ccc(C(F)(F)F)cn3)c2)C(=O)O1 ?
5.4 h

====

molecular target: Human immunodeficiency virus 1; assay: Tested for antiviral activity in HIV-1 IIIB-infected H9 cells
Listing of entries alongside the reported pIC50.
Please keep in mind that pIC50 is minus log10 of the molar concentration; only the number is needed.

Some compounds with recorded pIC50:
- CCC[C@]1(CCc2ccccc2)CC(=O)C([C@@H](CC)c2cccc(NS(=O)(=O)c3cn(C)cn3)c2)=C(O)O1 (stereo in doubt; Vb): 6.89
- CCC[C@]1(CCc2ccccc2)CC(=O)C([C@H](CC)c2cccc(NS(=O)(=O)c3ccc(C(F)(F)F)cn3)c2)=C(O)O1: 6.85
- CCC(Cc1ccccc1)c1cc(O)c(C(CC)c2ccccc2)c(=O)o1 (centres undefined): 5.52
- CCC[C@]1(CCc2ccccc2)CC(=O)C([C@@H](CC)c2cccc(NS(=O)(=O)c3cn(C)cn3)c2)=C(O)O1 (stereo in doubt; Va): 6.24
- CCC[C@@]1(CCc2ccccc2)CC(=O)C([C@@H](CC)c2cccc(NS(=O)(=O)c3ccc(C#N)cn3)c2)=C(O)O1: 6.96

Kindly consider the entry below.
Would you kindly share the measured pIC50 for CCC[C@]1(CCc2ccccc2)CC(=O)C([C@H](CC)c2cccc(NS(=O)(=O)c3ccc(C#N)cn3)c2)=C(O)O1 ?
6.31

====

molecular target: Pepsin A (Homo sapiens)
Sequence (P0DJD9 whole entry): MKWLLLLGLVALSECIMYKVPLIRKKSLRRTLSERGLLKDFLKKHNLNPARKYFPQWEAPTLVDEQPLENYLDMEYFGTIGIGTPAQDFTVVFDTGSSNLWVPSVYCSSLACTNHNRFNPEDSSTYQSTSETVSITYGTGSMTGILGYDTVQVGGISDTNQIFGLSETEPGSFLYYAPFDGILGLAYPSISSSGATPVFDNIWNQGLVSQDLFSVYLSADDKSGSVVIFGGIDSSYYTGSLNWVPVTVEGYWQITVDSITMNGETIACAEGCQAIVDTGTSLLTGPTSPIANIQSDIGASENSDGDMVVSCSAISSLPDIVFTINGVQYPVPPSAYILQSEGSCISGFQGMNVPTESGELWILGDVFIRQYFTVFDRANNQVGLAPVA
propertyName: pKi
Please keep in mind that pKi is minus log10 of the molar concentration; only the number is needed.

Would you kindly share the measured pKi for CCC[C@@]1(CCc2ccccc2)CC(O)=C([C@H](CC)c2cccc(NS(=O)(=O)c3ccc(C(F)(F)F)cn3)c2)C(=O)O1 ?
5.70
